Form field: percent blocking (one value per entry).
# system: rSARS2-B.1.1.7 S aa16-1211 4x aa mut., C-His (SARS-CoV-2, UniProt P0DTC2 16-1211)
# protocol: flow cytometry, blocking of binding to hACE-2 cells
Give just the number in %; leave the unit off.

Please review the following examples before continuing.
1035740 (antibody, V domains shown) VH: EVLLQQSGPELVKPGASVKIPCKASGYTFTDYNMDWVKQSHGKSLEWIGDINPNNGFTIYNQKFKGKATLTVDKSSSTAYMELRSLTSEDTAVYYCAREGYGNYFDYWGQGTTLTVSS VL: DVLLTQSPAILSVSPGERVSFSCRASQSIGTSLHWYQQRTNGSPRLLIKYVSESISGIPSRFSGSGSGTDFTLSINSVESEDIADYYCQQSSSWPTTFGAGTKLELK; 82.1
1035419 (antibody, V domains shown) VH: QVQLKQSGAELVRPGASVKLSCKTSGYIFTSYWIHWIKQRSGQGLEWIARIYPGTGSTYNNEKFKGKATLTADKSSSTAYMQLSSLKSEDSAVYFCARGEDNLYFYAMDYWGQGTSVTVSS VL: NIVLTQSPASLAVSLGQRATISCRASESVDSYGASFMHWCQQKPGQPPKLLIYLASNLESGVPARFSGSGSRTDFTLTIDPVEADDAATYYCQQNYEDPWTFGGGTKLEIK; 33.3

Alright, here's another binder for you.
What does the record list as percent blocking for 1035709 (antibody, V domains shown) VH: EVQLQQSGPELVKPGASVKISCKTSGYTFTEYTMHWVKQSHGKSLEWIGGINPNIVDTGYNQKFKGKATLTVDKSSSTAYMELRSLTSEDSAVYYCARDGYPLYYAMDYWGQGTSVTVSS VL: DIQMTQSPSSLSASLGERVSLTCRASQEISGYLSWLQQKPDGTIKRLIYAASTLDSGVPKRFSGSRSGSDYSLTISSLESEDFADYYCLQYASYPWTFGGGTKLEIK ?
80.7
